Numbers sourced from ChEMBL document CHEMBL1131850.

Listed below: PPB values for each entry.
testProtocol: Compound was evaluated in vivo for percent binding to human albumin fraction V.
Assay type: functional, organism-based
readout: PPB (%)

compound: C[C@@H](O)[C@H]1C(=O)N2C(C(=O)O)=C(c3cc(C(=N)N)c4oc5ccccc5c4c3)C[C@H]12
readout: PPB
unitAnnotation: %
valuePrefix: =
testResult: 71
//
compound: C[C@@H](O)[C@H]1C(=O)N2C(C(=O)O)=C(SCCNC=N)C[C@H]12 [IMIPENEM ANHYDROUS]
readout: PPB
unitAnnotation: %
valuePrefix: <
testResult: 5
//
compound: C[C@@H](O)[C@H]1C(=O)N2C(C(=O)O)=C(c3cc(C4=NCCN4)c4oc5ccccc5c4c3)C[C@H]12
readout: PPB
unitAnnotation: %
valuePrefix: =
testResult: 34
//
compound: C[C@@H](O)[C@H]1C(=O)N2C(C(=O)O)=C(c3cc(C(N)=O)c4oc5ccccc5c4c3)C[C@H]12
readout: PPB
unitAnnotation: %
valuePrefix: =
testResult: 95
